test system: HPPD polypeptides; experiment: coupled HPPD activity assay: turnover and residual turnover in crude extracts; format: biochemical, Pseudomonas fluorescens; details: 100 μM Cmpd. 1; signal change with inhibitor divided by signal change without inhibitor
molecules and their reported Residual turnover [%]
Enter your answer as a number in %; do not include the unit.

Solved entries:
[[record]]
molecule = "63 (protein, mutant HPPD polypeptide) MADLYENPMGLMGFEFIEFASPTPGTLEPIFEIMGFTKVATHRSKNVHLYRQGEINLILNNEPNSIASYFAAEHGPSVCGMAFRVKDSQKAYNRALELGAQPIHIDTGPMELNLPAIKGIGGAPLYLIDRFGEGSSIYDIDFVYLEGVERNPVGAGLKVIDHLTHNVYRGRMVYWANFYEKLFNFREARYFDIKGEYTGLTSKAMSAPDGMIKIALNEESSKGAGQIEEFLMQFNGEGIQHVAFLTDDLVKTWDALKKIGMRFMTAPADSYYEMLEGRLPDHGEPVDQLQARGILLDGSSVEGDKRLLLQIFSETLMGPVFFEFIQRKGDDGFGPHSFKVLFEQIERDQVRRGVLTAD"
measured_number = 68

[[record]]
molecule = "3 (protein, mutant HPPD polypeptide) MADLYENPMGLMGFEFIEFASPTPGTLEPIFEIMGFTKVATHRSKNVHLYRQGEINLILNNEPNSIASYFAAEHGPSVCGMAFRVKDSQKAYNRALELGAQPIHIDTGPMELNLPAIKGIGGAPLYLIDRFGEGSSIYDIDFVYLEGVERNPVGAGLKVIDHLTHNVYRGRMVYWANFYEKLFNFREARYFDIKGEYTGLTSKAMSAPDGMIRIPLNEESSKGAGQIEEFLMQFNGEGIQHVAFLTDDLVKTWDALKKIGMRFMTAPADTYYEMLEGRLPDHGEPVDQLQARGILLDGSSVEGDKRLLLQIFSETLMGPVFFEFIQRKGDDGFGPDSFKVLFESIERDQVRRGVLTAD"
measured_number = 64

[[record]]
molecule = "18 (protein, mutant HPPD polypeptide) MADLYENPMGLMGFEFIEFASPTPGTLEPIFEIMGFTKVATHRSKNVHLYRQGEINLILNNEPNSIASYFAAEHGPSVCGMAFRVKDSQKAYNRALELGAQPIHIDTGPMELNLPAIKGIGGAPLYLIDRFGEGSSIYDIDFVYLEGVERNPVGAGLKVIDHLTHNVYRGRMVYWANFYEKLFNFREARYFDIKGEYTGLTSKAMSAPDGMIRIPLNEESSKGAGQIEEFLMQFNGEGIQHVAFLTDDLVKTWDALKKIGMRFMTAPPDEYYEMLEGRLPDHGEPVDQLQARGILLDGSSVEGDKRLLLQIFSETLMGPVFFEFIQRKGDDGFGPDSFKVLFESVERDQVRRGVLTAD"
measured_number = 43

[[record]]
molecule = "23 (protein, mutant HPPD polypeptide) MADLYENPMGLMGFEFIEFASPTPGTLEPIFEIMGFTKVATHRSKNVHLYRQGEINLILNNEPNSIASYFAAEHGPSVCGMAFRVKDSQKAYNRALELGAQPIHIDTGPMELNLPAIKGIGGAPLYLIDRFGEGSSIYDIDFVYLEGVERNPVGAGLKVIDHLTHNVYRGRMVYWANFYEKLFNFREARYFDIKGEYTGLTSKAMSAPDGMIRIPLNEESSKGAGQIEEFLMQFNGEGIQHVAFLTDDLVKTWDALKKIGMRFMTAPPDTYYEMLEGRLPDHGEPVDQLQARGILLDGSSVEGDKRLLLQIFSETLMGPVFFEFIQRKGDDGFGPDSFKVLFEQVERDQVRRGVLTAD"
measured_number = 39

[[record]]
molecule = "54 (protein, mutant HPPD polypeptide) MADLYENPMGLMGFEFIEFASPTPGTLEPIFEIMGFTKVATHRSKNVHLYRQGEINLILNNEPNSIASYFAAEHGPSVCGMAFRVKDSQKAYNRALELGAQPIHIDTGPMELNLPAIKGIGGAPLYLIDRFGEGSSIYDIDFVYLEGVERNPVGAGLKVIDHLTHNVYRGRMVYWANFYEKLFNFREARYFDIKGEYTGLTSKAMSAPDGMIRIPLNEESSKGAGQIEEFLMQFNGEGIQHVAFLTDDLVKTWDALKKIGMRFMTAPADNYYEMLEGRLPDHGEPVDQLQARGILLDGSSVEGDKRLLLQIFSETLMGPVFFEFIQRKGDDGFGPDSFKVLFEQKERDQVRRGVLTAD"
measured_number = 66

[[record]]
molecule = "5 (protein, mutant HPPD polypeptide) MADLYENPMGLMGFEFIEFASPTPGTLEPIFEIMGFTKVATHRSKNVHLYRQGEINLILNNEPNSIASYFAAEHGPSVCGMAFRVKDSQKAYNRALELGAQPIHIDTGPMELNLPAIKGIGGAPLYLIDRFGEGSSIYDIDFVYLEGVERNPVGAGLKVIDHLTHNVYRGRMVYWANFYEKLFNFREARYFDIKGEYTGLTSKAMSAPDGMIRIPLNEESSKGAGQIEEFLMQFNGEGIQHVAFLTDDLVKTWDALKKIGMRFMTAPPDTYYEMLEGRLPDHGEPVDQLQARGILLDGSSVEGDKRLLLQIFSETLMGPVFFEFIQRKGDDGFGPDSFKVLFESIERDQVRRGVLTAD"
measured_number = 38


Next molecule, please.
Ask: Entry under review: 6 (protein, mutant HPPD polypeptide) MADLYENPMGLMGFEFIEFASPTPGTLEPIFEIMGFTKVATHRSKNVHLYRQGEINLILNNEPNSIASYFAAEHGPSVCGMAFRVKDSQKAYNRALELGAQPIHIDTGPMELNLPAIKGIGGAPLYLIDRFGEGSSIYDIDFVYLEGVERNPVGAGLKVIDHLTHNVYRGRMVYWANFYEKLFNFREARYFDIKGEYTGLTSKAMSAPDGMIRIPLNEESSKGAGQIEEFLMQFNGEGIQHVAFLTDDLVKTWDALKKIGMRFMTAPADNYYEMLEGRLPDHGEPVDQLQARGILLDGSSVEGDKRLLLQIFSETLMGPVFFEFIQRKGDDGFGPDSFKVLFESIERDQVRRGVLTAD . Reported Residual turnover [%]?
Reply: 50
